Entries and their measured pKi follow.
Biological target: human CB1 receptor (Homo sapiens, UniProt P21554)
Construct: Eurofins Discovery (contract assay)
Sequence (P21554 whole entry): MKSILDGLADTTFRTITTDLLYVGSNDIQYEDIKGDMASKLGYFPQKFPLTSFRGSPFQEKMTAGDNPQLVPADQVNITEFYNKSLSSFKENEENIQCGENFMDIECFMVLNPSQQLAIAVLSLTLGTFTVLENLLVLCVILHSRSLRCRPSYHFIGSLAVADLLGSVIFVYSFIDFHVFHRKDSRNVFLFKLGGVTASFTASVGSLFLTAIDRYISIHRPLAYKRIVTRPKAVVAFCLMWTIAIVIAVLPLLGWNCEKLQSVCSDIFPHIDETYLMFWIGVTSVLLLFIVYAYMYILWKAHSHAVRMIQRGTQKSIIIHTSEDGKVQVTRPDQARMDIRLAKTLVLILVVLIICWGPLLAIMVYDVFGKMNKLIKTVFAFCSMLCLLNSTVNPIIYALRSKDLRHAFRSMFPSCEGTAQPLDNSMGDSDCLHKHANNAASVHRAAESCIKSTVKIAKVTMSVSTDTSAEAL
Assay: Radioligand binding assay at human CB1 receptor ([^3H]CP55940 displacement, Eurofins Discovery)
Conditions: Cheng Prusoff from IC50; [^3H]CP55940 radioligand; read-out: hCB1 Ki
Hey, just a heads up that pKi is the negative log base 10 of the concentration in molar.

CCCCCCCc1cc(O)c2c(c1)OC(C)(C)[C@@H]1CCC(C)=C[C@@H]21 [Δ^9-THCP] : 8.92

Please give the measured pKi for this molecule: CCCCc1cc(O)c2c(c1)OC(C)(C)[C@@H]1CCC(C)=C[C@@H]21 [Δ^9-THCB]
7.82

Hello, the source for this data is patent US12606508B2, in case you need it.
